IC50 values by entry
# assayedSystem: glucan synthase (GS) prepared from Candida albicans MY1055 (Candida albicans, UniProt O13428)
# Sequence (O13428 1-1897): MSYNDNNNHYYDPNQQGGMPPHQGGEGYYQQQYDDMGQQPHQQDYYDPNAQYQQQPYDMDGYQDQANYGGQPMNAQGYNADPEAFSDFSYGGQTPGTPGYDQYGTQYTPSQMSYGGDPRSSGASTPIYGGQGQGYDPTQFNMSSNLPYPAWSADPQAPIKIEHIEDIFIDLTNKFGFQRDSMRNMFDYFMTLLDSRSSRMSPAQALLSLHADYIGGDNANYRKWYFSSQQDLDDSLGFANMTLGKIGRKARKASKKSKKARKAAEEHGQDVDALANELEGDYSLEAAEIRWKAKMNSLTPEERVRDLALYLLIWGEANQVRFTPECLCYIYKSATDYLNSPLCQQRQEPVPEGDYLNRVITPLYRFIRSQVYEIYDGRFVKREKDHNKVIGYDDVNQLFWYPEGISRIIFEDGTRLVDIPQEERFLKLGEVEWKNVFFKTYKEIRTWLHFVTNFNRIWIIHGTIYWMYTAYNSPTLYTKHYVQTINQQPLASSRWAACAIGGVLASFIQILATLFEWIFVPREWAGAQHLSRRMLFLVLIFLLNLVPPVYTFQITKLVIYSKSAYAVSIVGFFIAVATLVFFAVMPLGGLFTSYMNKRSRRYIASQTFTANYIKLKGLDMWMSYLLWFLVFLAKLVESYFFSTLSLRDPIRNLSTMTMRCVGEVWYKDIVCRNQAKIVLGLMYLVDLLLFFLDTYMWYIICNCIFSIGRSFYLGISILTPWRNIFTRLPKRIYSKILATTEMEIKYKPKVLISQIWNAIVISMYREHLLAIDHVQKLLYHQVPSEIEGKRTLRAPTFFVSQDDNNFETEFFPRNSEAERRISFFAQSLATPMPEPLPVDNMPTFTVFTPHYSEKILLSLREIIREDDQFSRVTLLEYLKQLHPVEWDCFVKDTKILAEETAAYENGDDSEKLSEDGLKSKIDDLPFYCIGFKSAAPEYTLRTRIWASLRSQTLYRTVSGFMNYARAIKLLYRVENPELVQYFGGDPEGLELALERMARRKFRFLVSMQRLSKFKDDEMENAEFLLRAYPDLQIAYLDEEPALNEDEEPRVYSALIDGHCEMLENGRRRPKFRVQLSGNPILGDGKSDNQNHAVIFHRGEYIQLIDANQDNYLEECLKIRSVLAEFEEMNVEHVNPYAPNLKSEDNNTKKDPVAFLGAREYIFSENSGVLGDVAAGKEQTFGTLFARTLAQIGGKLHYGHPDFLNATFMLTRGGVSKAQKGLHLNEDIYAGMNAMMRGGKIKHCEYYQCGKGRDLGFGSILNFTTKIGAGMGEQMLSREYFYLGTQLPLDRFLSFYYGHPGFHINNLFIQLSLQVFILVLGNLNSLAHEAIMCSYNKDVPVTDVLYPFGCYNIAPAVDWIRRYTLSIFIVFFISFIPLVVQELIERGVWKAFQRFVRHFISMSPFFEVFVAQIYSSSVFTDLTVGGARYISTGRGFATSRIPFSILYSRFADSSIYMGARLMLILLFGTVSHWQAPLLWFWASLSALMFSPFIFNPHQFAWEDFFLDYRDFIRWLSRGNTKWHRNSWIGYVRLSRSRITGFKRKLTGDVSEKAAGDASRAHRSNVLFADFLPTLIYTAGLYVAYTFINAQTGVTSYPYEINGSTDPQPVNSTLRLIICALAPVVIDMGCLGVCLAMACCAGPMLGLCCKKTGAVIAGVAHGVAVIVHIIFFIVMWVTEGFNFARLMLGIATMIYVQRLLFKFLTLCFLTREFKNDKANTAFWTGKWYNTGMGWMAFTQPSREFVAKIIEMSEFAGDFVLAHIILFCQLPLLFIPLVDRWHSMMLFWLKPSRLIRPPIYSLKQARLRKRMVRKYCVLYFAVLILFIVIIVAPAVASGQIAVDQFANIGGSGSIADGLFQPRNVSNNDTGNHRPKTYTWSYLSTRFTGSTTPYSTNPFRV
# measurementProtocol: Glucan synthase inhibition (polymerization assay, 96-well)
# Assay type: biochemical
# setupConditions: GS from C. albicans MY1055; 60 min incubation at 22° C.; read-out: Candida Albicans GS IC50 (converted)
quantityName: IC50 (nM)

>>> resultnumber("CC(C)[C@@H](C)[C@@]1(C)CC[C@]2(C)[C@H]3CC[C@@H]4[C@@]5(COC[C@@]4(C)[C@@H](OC[C@](C)(N)C(C)(C)C)[C@H](n4ncnc4-c4ccc(C(N)=O)nc4)C5)C3=CC[C@@]2(C)[C@@H]1C(=O)O")
3.88
>>> resultnumber("CC(C)[C@@H](C)[C@@]1(C)CC[C@]2(C)[C@H]3CC[C@@H]4[C@@]5(COC[C@@]4(C)[C@@H](OC[C@](C)(N)C(C)(C)C)[C@H](n4ncnc4S(N)(=O)=O)C5)C3=CC[C@@]2(C)[C@@H]1C(=O)O [Example 123C]")
5.46
>>> resultnumber("CC(C)[C@@H](C)[C@@]1(C)CC[C@]2(C)[C@H]3CC[C@@H]4[C@@]5(COC[C@@]4(C)[C@@H](OC[C@](C)(N)C(C)(C)C)[C@H](n4ncnc4-c4cccc(C(N)=O)c4)C5)C3=CC[C@@]2(C)[C@@H]1C(=O)O")
7.77
>>> resultnumber("CC(C)[C@@H](C)[C@@]1(C)CC[C@]2(C)[C@H]3CC[C@@H]4[C@@]5(COC[C@@]4(C)[C@@H](OC[C@](C)(N)C(C)(C)C)[C@H](n4ncnc4-c4ccc(CN(C)C)cc4)C5)C3=CC[C@@]2(C)[C@@H]1C(=O)O")
0.127
